Where do the numbers come from? From ChEMBL document CHEMBL1139005.

Target: Protein kinase C alpha type (Homo sapiens, UniProt P17252)
Experiment: Displacement of [20-3H]PDBu from recombinant PKC alpha in presence of phosphatidylserine
pKi: −log10 of the molar value.
Use 7 as the dividing line for pKi, with the line itself on the satisfied side and lower values as not satisfied.

>  <COMPOUND>
CC(C)CC(C/C=C1/C[C@@](CO)(COC(=O)C(C)(C)C)OC1=O)CC(C)C

>  <LABEL>
satisfied

$$$$
>  <COMPOUND>
CC(C)CC(C/C=C1/CC(CO)(COC(=O)CC(CC(C)C)CC(C)C)OC1=O)CC(C)C (configuration not stated)

>  <LABEL>
satisfied

$$$$
>  <COMPOUND>
CC(C)CC(C/C=C1/CCC(CO)(COC(=O)C(C)(C)C)OC1=O)CC(C)C (configuration not stated)

>  <LABEL>
satisfied

$$$$
>  <COMPOUND>
CC(C)CC(C/C=C1\CC(/C=C/C(=O)OC(C)(C)C)(CO)OC1=O)CC(C)C (configuration not stated)

>  <LABEL>
not satisfied

$$$$
>  <COMPOUND>
CC(C)=CCC1(CC=C(C)C)CC(CO)(COC(=O)C(C)(C)C)OC1=O (configuration not stated)

>  <LABEL>
not satisfied

$$$$
>  <COMPOUND>
CCCCCCCC(=O)OCC1(CO)C/C(=C/CC(CC(C)C)CC(C)C)C(=O)O1 (configuration not stated)

>  <LABEL>
satisfied

$$$$
>  <COMPOUND>
CC(C)CC(C/C=C1\CC(/C=C\C(=O)OC(C)(C)C)(CO)OC1=O)CC(C)C (configuration not stated)

>  <LABEL>
not satisfied

$$$$
>  <COMPOUND>
CC(C)CC(C/C=C1\CC(CO)(COC(=O)c2ccccc2)OC1=O)CC(C)C (configuration not stated)

>  <LABEL>
satisfied

$$$$
>  <COMPOUND>
CCCCCC(=O)OCC1(CO)C/C(=C\CC(CC(C)C)CC(C)C)C(=O)O1 (configuration not stated)

>  <LABEL>
satisfied

$$$$
>  <COMPOUND>
CCCCCC(=O)OCC1(CO)C/C(=C/CC(CC(C)C)CC(C)C)C(=O)O1 (configuration not stated)

>  <LABEL>
satisfied

$$$$
>  <COMPOUND>
CC(C)CC(C/C=C1\CCC(CO)(COC(=O)C(C)(C)C)OC1=O)CC(C)C (configuration not stated)

>  <LABEL>
satisfied

$$$$
>  <COMPOUND>
CC(C)CCC1(CCC(C)C)CC(CO)(COC(=O)C(C)(C)C)OC1=O (configuration not stated)

>  <LABEL>
not satisfied

$$$$
>  <COMPOUND>
CC(C)CC(C/C=C1/CC(/C=C/C(=O)OC(C)(C)C)(CO)OC1=O)CC(C)C (configuration not stated)

>  <LABEL>
satisfied

$$$$
>  <COMPOUND>
CC(C)CC(C/C=C1/CC(CO)(COC(=O)c2ccccc2)OC1=O)CC(C)C (configuration not stated)

>  <LABEL>
satisfied

$$$$
>  <COMPOUND>
CCCCCCCC(=O)OCC1(CO)C/C(=C\CC(CC(C)C)CC(C)C)C(=O)O1 (configuration not stated)

>  <LABEL>
satisfied

$$$$
